B1: library; a variant is named by its letters at X, in order (parent)
chain: MNIQIGELAKRTACPVVTIRFYEQEGLLPPPGRSRGNFRLYGEEHVERLQFIRHCRSLDMPLSXVRTLLSYRKRPDQDCGEVXMLLDEHXRQVESRIGALLELXHXLVELREACSGARPAQSCGILQGLSDCVCDTRGTTAHXSD

- Variants of: B1
- test: sfGFP reporter fluorescence (15 h) (µM FITC); higher = stronger transcriptional activation
- assay-context: library round: Round 3b; ligand: 1 µM Pb
// values below are reported sfGFP reporter fluorescence
Keep the answer to the number alone.

Reference set, count: 2
# changes, readout-kind, test-result
records = [
    ("DIITAT", "sfGFP reporter fluorescence", 0.0634),
    ("KFATHR", "sfGFP reporter fluorescence", 0.705),
]

Looking up `DFATHT` , I found its sfGFP reporter fluorescence recorded as 0.0491

Record `DIAVER` . Reported sfGFP reporter fluorescence: 0.0866

Form: variant = `KIAVEP` ; sfGFP reporter fluorescence = 0.997

`KIATEP` has a reported sfGFP reporter fluorescence of 1

Recorded sfGFP reporter fluorescence (variant `KFITHR` ): 0.554

Documented sfGFP reporter fluorescence of `KNATET` : 0.324

Record summary for `DIIVET` : reported sfGFP reporter fluorescence = 0.0933

What the record says about `KFAKAR` : sfGFP reporter fluorescence is 0.663

Sample `DIAVAR` ; sfGFP reporter fluorescence observed: 0.102

Note to self: sfGFP reporter fluorescence recorded for `KNAVAR` was 0.195

The variant listed as `DIATER` shows sfGFP reporter fluorescence equal to 0.0627

Recorded sfGFP reporter fluorescence (variant `KFAVHT` ): 0.632

For this variant ( `DFAKER` ), measured sfGFP reporter fluorescence is 0.0459
